# assayed system: TLR7 (Homo sapiens, UniProt Q9NYK1)
# Construct: Human peripheral blood mononuclear cells (PBMCs) consist of lymphocytes, monocytes and dendritic cells that express TLR7, TLR8 and TLR9; endogenous in cells
# Sequence (Q9NYK1 27-1049): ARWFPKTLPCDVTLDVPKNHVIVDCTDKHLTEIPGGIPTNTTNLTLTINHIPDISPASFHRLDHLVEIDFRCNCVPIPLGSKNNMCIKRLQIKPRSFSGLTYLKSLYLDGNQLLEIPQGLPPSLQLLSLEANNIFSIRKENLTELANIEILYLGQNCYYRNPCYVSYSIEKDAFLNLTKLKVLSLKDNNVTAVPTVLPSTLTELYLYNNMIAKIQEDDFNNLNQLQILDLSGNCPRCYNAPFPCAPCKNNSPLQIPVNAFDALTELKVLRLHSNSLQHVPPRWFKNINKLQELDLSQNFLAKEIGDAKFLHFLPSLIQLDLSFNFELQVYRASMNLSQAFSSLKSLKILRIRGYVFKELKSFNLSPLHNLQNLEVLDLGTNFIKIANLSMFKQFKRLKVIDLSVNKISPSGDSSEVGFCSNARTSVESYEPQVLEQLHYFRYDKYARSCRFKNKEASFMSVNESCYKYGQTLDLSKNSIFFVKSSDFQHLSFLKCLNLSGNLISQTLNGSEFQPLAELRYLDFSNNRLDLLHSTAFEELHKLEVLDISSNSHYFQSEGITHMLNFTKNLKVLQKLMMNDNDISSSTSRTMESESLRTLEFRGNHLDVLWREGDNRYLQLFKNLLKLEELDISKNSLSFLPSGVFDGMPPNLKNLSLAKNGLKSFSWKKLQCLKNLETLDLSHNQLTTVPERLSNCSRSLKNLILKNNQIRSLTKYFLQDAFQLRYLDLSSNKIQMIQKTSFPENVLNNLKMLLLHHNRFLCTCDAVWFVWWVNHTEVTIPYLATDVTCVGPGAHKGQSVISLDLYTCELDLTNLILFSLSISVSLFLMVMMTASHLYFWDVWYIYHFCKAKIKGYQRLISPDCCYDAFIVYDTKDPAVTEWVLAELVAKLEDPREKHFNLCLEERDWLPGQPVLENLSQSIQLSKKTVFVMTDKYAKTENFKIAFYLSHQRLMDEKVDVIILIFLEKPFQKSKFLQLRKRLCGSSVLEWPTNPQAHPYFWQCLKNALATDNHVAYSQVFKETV
# assay comment: TLR7 human PBMC cell-based assay (antagonist, GS-986 stimulated cytokine release)
# test parameters: human PBMCs; TLR7 agonist GS-986 400 nM, 6 hours; cytokines (IL-6 and IFNα) in supernatant; read-out: TLR-7 EC50
pEC50: −log10 of the molar value.
Below: a set of entries, each annotated with reported pEC50.

molecule	assayed system	pEC50
Cc1cc(-c2[nH]c3cc(-c4ccc5nc(C6[C@H]7CC[C@H](C7)N6CC(N)=O)[nH]c5c4)sc3c2C(C)C)cn2ncnc12 (stereo partly shown)	TLR7 (Homo sapiens, UniProt Q9NYK1)	8.92
Cc1cc(-c2[nH]c3cc(C(=O)N(C)C4CCC(N5CCN(CC(F)F)CC5)CC4)sc3c2C(C)C)cn2ncnc12 (stereo not shown)	TLR7 (Homo sapiens, UniProt Q9NYK1)	8.52
Cc1cc(-c2[nH]c3cc(CN4CCC(C)(O)CC4)sc3c2C(C)C)cn2ncnc12	TLR7 (Homo sapiens, UniProt Q9NYK1)	8.09
CCc1c(-c2cc(C)c3ncnn3c2)[nH]c2cc(-c3nc4ccc(N5CCN(CC(N)=O)CC5)cc4[nH]3)sc12	TLR7 (Homo sapiens, UniProt Q9NYK1)	6.84

----------
Listed next: entries and their corresponding EC50.
# assayed system: TLR7 (Homo sapiens, UniProt Q9NYK1)
# Construct: Human peripheral blood mononuclear cells (PBMCs) consist of lymphocytes, monocytes and dendritic cells that express TLR7, TLR8 and TLR9; endogenous in cells; host or cells: cryopreserved human PBMCs from healthy donors
# assay comment: TLR7 human PBMC cell-based assay (antagonist, GS-986 stimulated cytokine release)
# test parameters: human PBMCs; TLR7 agonist GS-986 400 nM, 6 hours; cytokines (IL-6 and IFNα) in supernatant; read-out: TLR-7 EC50

compound	EC50
Cc1cc(-c2[nH]c3cc(-c4ccc(N5CCN(C)CC5)c(F)c4)sc3c2C(C)C)cn2ncnc12	1.8 nM
Cc1cc(-c2[nH]c3cc(C4=NC5(CCN(CC(N)=O)CC5)CO4)sc3c2C(C)C)cn2ncnc12	1.7 nM
CO[C@@H]1CCN(C(=O)c2cc3[nH]c(-c4cc(C)nc(C)c4)c(C(C)C)c3s2)C[C@@H]1N	64.4 nM
Cc1cc(-c2[nH]c3cc(C4CC5CNCC5C4)sc3c2C(C)C)cn2ncnc12 (centres unmarked)	0.2 nM
Cc1cc(-c2[nH]c3cc(C(=O)N4CCC[C@H](N)[C@@H]4C)sc3c2C(C)C)cc(C)n1	11.1 nM
Cc1cc(-c2[nH]c3cc(-c4ccc(N5CCNCC5)nc4)sc3c2C(C)C)cc(C)n1	20.9 nM
Cc1cc(-c2[nH]c3cc(C(=O)N4C[C@@H]5C[C@H]4CN5)sc3c2C(C)C)cc(C)n1	223 nM
Cc1cc(-c2[nH]c3cc(-c4cn(C5CCNCC5)nn4)sc3c2C(C)C)cn2ncnc12	0.3 nM

----------
# assayed system: TLR8 (Homo sapiens, UniProt Q9NR97)
# Construct: Human peripheral blood mononuclear cells (PBMCs) consist of lymphocytes, monocytes and dendritic cells that express TLR7, TLR8 and TLR9; endogenous in cells; host or cells: cryopreserved human PBMCs from healthy donors
# assay comment: TLR8 human PBMC cell-based assay (antagonist, Compound A stimulated cytokine release)
# test parameters: human PBMCs; TLR8 agonist Compound A 800 nM, 6 hours; cytokines (TNFa and IL 12p40) in supernatant; read-out: TLR-8 EC50
pEC50: −log10 of the molar value.
Catalogue of pEC50 readings, one per entry.

molecule	pEC50
Cc1cc(-c2[nH]c3cc(C(=O)N4CCC5(CCNC5)C4)sc3c2C(C)C)cc(C)n1 (stereo not shown) [Example 14]	6.23
Cc1cc(-c2[nH]c3cc(C4CC5CN(CC(N)=O)CC5C4)sc3c2C(C)C)cn2ncnc12 (stereo not shown) [Example 289]	8.23
Cc1cc(-c2[nH]c3cc(C(=O)N4CCC5CCNCC54)sc3c2C(C)C)cn2ncnc12 (stereo not shown) [Example 89]	7.58
Cc1c(C(=O)N2CCC[C@@H]3NCC[C@@H]32)sc2c(C(C)C)c(-c3cc(C)c4ncnn4c3)[nH]c12 [Example 243]	7.08
Cc1cc(-c2[nH]c3cc(C4CCN(CC(N)=O)C5(CCC5)C4)sc3c2C(C)C)cn2ncnc12 (stereo not shown) [Example 301]	6.66
Cc1cc(-c2[nH]c3cc(C(=O)N(C)C4CCC(N5CCC(F)(F)C5)CC4)sc3c2C(C)C)cn2ncnc12 (stereo not shown) [Example 254]	6.87
Cc1c(-c2[nH]c3cc(CN4CCC(C)(O)CC4)sc3c2C(C)C)cn2ncnc2c1C [Example 266]	8.92

----------
# assayed system: TLR8 (Homo sapiens, UniProt Q9NR97)
# Construct: Human peripheral blood mononuclear cells (PBMCs) consist of lymphocytes, monocytes and dendritic cells that express TLR7, TLR8 and TLR9; endogenous in cells
# assay comment: TLR8 human PBMC cell-based assay (antagonist, Compound A stimulated cytokine release)
# test parameters: human PBMCs; TLR8 agonist Compound A 800 nM, 6 hours; cytokines (TNFa and IL 12p40) in supernatant; read-out: TLR-8 EC50
pEC50: −log10 of the molar value.
Label met when pEC50 >= 8; otherwise not met.

compound	group label
Cc1cc(-c2[nH]c3cc(C4CCN(C(=O)CN5CCCC5)CC4)sc3c2C(C)C)cn2ncnc12 [Example 196]	met
Cc1cc(-c2[nH]c3cc(C4CCN(C5CCC5)CC4)sc3c2C(C)C)cn2ncnc12 [Example 195]	met
Cc1cc(-c2[nH]c3cc(C(=O)N(C4CCC4)C4CCNCC4)sc3c2C(C)C)cn2ncnc12 [Example 84]	not met
Cc1cc(-c2[nH]c3cc(C(=O)N4C5CNCC4COC5)sc3c2C(C)C)cc(C)n1 [Example 15]	not met
Cc1c(-c2[nH]c3cc(C4CCN(CC(N)=O)CC4)sc3c2C(C)C)cn2ncnc2c1C [Example 279]	met
Cc1cc(-c2[nH]c3cc(C(=O)N(C)C4CCC(N5CC6CCC(C5)O6)CC4)sc3c2C(C)C)cn2ncnc12 (stereo not drawn) [Example 248]	not met
Cc1cc(-c2[nH]c3cc(C4CCC5(C4)CN(CC(N)=O)C5)sc3c2C(C)C)cn2ncnc12 (single isomer, unassigned) [Example 310]	met
Cc1cc(-c2[nH]c3cc(C(=O)N(C)C4CCN(CC#N)CC4)sc3c2C(C)C)cn2ncnc12 [Example 182]	not met
Cc1cc(N2CCNCC2)ncc1-c1cc2[nH]c(-c3cc(C)c4ncnn4c3)c(C(C)C)c2s1 [Example 216]	met
Cc1c(-c2[nH]c3cc(-c4cnn(C5CCNCC5)c4)sc3c2C(C)C)cn2ncnc2c1C [Example 229]	met
Cc1cc(-c2[nH]c3cc(C(=O)N4CCC[C@@H]5NCC[C@@H]54)sc3c2C(C)C)cn2ncnc12 [Example 93]	not met
Cc1cc(-c2[nH]c3cc(C4CCC(N5CCC(F)C5)CC4)sc3c2C(C)C)cn2ncnc12 (stereo not drawn) [Example 256]	met
Cc1cc(-c2[nH]c3cc(C4CCN(Cc5ccn(C)n5)CC4)sc3c2C(C)C)cn2ncnc12 [Example 194]	met
Cc1c(-c2[nH]c3cc(C(=O)N(C)C4CCNCC4)sc3c2C(C)C)cn2ncnc2c1C [Example 150]	met
Cc1cc(-c2[nH]c3cc(CN4CCC(C)(O)CC4)sc3c2C(C)C)cn2ncnc12 [Example 270]	met
Cc1cc(-c2[nH]c3cc(C(=O)N4C[C@H](C)NC[C@H]4C)sc3c2C(C)C)cn2ncnc12 [Example 124]	met
Cc1cc(-c2[nH]c3cc(C4CCC5CNCC5C4)sc3c2C(C)C)cn2ncnc12 (stereo not drawn) [Example 157]	not met

----------
# assayed system: TLR8 (Homo sapiens)
# Construct: Human peripheral blood mononuclear cells (PBMCs) consist of lymphocytes, monocytes and dendritic cells that express TLR7, TLR8 and TLR9; endogenous in cells
# Sequence (Q9NR97 27-1041): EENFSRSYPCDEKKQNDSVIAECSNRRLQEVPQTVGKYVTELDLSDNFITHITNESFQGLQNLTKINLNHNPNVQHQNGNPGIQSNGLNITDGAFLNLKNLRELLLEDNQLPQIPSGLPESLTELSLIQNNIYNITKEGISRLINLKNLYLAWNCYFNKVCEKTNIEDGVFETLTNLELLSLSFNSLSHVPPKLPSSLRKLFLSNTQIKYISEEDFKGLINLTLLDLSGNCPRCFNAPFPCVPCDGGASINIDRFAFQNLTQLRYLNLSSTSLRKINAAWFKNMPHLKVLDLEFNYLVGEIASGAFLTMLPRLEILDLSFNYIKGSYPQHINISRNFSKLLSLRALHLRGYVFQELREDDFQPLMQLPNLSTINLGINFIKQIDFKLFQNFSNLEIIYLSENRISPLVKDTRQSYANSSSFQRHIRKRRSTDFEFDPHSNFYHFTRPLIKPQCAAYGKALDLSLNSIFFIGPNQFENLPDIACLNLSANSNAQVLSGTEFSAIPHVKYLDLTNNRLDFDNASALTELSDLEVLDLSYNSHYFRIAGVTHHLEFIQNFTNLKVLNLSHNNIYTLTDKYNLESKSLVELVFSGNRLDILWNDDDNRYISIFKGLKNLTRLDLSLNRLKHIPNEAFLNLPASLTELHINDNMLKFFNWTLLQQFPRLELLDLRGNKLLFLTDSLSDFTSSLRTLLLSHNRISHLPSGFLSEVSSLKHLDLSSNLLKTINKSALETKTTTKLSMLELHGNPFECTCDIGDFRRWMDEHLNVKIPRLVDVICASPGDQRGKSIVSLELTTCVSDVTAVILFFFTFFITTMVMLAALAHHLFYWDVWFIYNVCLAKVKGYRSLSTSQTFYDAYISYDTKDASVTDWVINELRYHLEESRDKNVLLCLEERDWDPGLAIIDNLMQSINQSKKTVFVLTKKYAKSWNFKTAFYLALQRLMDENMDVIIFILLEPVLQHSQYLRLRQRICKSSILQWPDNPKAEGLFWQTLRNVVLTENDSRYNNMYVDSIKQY
# assay comment: TLR8 human PBMC cell-based assay (antagonist, Compound A stimulated cytokine release)
# test parameters: human PBMCs; TLR8 agonist Compound A 800 nM, 6 hours; cytokines (TNFa and IL 12p40) in supernatant; read-out: TLR-8 EC50
Returns: string. Value is YES if measured EC50 is below 20 nM, and NO if it is greater than or equal to it.

compound	group label
Cc1cc(-c2[nH]c3cc(C4CCN(C(=O)C5CN6CCC5CC6)CC4)sc3c2C(C)C)cn2ncnc12 (stereo not shown)	YES
Cc1cc(-c2[nH]c3cc(C(=O)N(C)C4CCNCC4(C)C)sc3c2C(C)C)cn2ncnc12 (stereo not shown)	NO
Cc1cc(-c2[nH]c3cc(-c4ccc5c(c4)CCNC5)sc3c2C(C)C)cn2ncnc12	YES
Cc1cc(-c2[nH]c3cc(C(=O)N4C5CCC4CNC5)sc3c2C(C)C)cc(C)n1	NO
Cc1cc(-c2[nH]c3cc(C(=O)N(C)C4CCN(CCC#N)CC4)sc3c2C(C)C)cn2ncnc12	NO
Cc1cc(-c2[nH]c3cc(-c4nc5ccc(N6CCNCC6)cc5[nH]4)sc3c2C(C)C)cn2ncnc12	NO
Cc1cc(-c2[nH]c3cc(C(=O)N(C)[C@@H]4CCNC4)sc3c2C(C)C)cc(C)n1	NO
CCc1c(-c2cc(C)c3ncnn3c2)[nH]c2cc(C(=O)N3CCNCC3)sc12	YES
Cc1cc(-c2[nH]c3cc(C(=O)N(C)CCN4CCOCC4)sc3c2C(C)C)cn2ncnc12	NO
Cc1cc(-c2[nH]c3cc(C(=O)N4CC(N)C4)sc3c2C(C)C)cn2ncnc12	YES
Cc1c(-c2[nH]c3cc(-c4ccc(N5CCNCC5)cc4)sc3c2C(C)C)cn2ncnc2c1C	YES
Cc1cc(-c2[nH]c3cc(C(=O)N4CCNC(C(F)F)C4)sc3c2C(C)C)cn2ncnc12 (stereo not shown)	NO
Cc1cc(-c2[nH]c3cc(C(=O)N(C)C4CCC(N5CC6(C5)CS(=O)(=O)C6)CC4)sc3c2C(C)C)cn2ncnc12 (stereo not shown)	YES
Cc1cc(-c2[nH]c3cc(-c4nnc(C5CCNCC5)o4)sc3c2C(C)C)cc(C)n1	YES
Cc1cc(-c2[nH]c3cc(C(=O)N(C)C4CCC(N5CC(F)C5)CC4)sc3c2C(C)C)cn2ncnc12 (stereo not shown)	YES
Cc1cc(-c2[nH]c3cc(CN4CC5(C4)CS(=O)(=O)C5)sc3c2C(C)C)cn2ncnc12	NO
Cc1cc(-c2[nH]c3cc(-c4ccc(N5CCNCC5)cc4)sc3c2C(C)C)cn2ncnc12	YES
Cc1cc(-c2[nH]c3cc(C(=O)N4CCCC(CN)C4)sc3c2C(C)C)cn2ncnc12 (stereo not shown)	YES
Cc1cc(-c2[nH]c3cc(C(=O)N4CCC[C@@H]4CN(C)C)sc3c2C(C)C)cn2ncnc12	YES
Cc1cc(-c2[nH]c3cc(C(=O)N4CCCCC4CN(C)C)sc3c2C(C)C)cn2ncnc12 (stereo not shown)	YES
Cc1cc(-c2[nH]c3cc(C(=O)N(C)C4CCNCC4)sc3c2C(C)C)cc(C)n1	NO
Cc1cc(-c2[nH]c3cc(C4CCN(C(=O)CN(C)C)CC4)sc3c2C(C)C)cn2ncnc12	YES
Cc1cc(-c2[nH]c3cc(C4CCC5(CC4)CCN(CC(N)=O)CC5)sc3c2C(C)C)cn2ncnc12	YES
Cc1c(C(=O)N(C)C2CCNCC2)sc2c(C(C)C)c(-c3cc(C)c4ncnn4c3)[nH]c12	NO
Cc1cc(-c2[nH]c3cc(C4CCC5(C4)CN(CC(N)=O)C5)sc3c2C(C)C)cn2ncnc12 (single isomer, unassigned) [Example 311]	YES
Cc1cc(-c2[nH]c3cc(C(=O)N4CCC5CNCCC54)sc3c2C(C)C)cn2ncnc12 (stereo not shown)	YES
Cc1cc(-c2[nH]c3cc(C(=O)N(C)[C@H]4CCNC4)sc3c2C(C)C)cn(C)c1=O	NO
Cc1cc(-c2[nH]c3cc(C(=O)N4C[C@H]5C[C@@H]4CN5)sc3c2C(C)C)cc(C)n1	NO
Cc1cc(-c2[nH]c3cc(C(=O)N(C)CCCN(C)C)sc3c2C(C)C)cn2ncnc12	YES
Cc1cc(-c2[nH]c3cc(-c4cnc5c(c4)CNCC5)sc3c2C(C)C)cn2ncnc12	YES
